- assay_remarks: Pharmacokinetic parameter clearance was determined in fed Beagle dogs after iv administration of 1.5 mg/kg
- Format: ADME, organism-based, Canis lupus familiaris
- Parameters: dose 1.5 mg/kg, route intravenous
- stated_conditions: dog, in vivo
measured_attribute: clearance (mL/min/kg)

>>> endpoint_result("C[C@@H]1CC[C@@]2(OC1)O[C@H]1C[C@H]3[C@@H]4CC[C@H]5C[C@@H](O[C@@H]6O[C@H](CO)[C@@H](O[C@@H]7O[C@H](CO)[C@@H](O)[C@H](O)[C@H]7O)[C@H](O)[C@H]6O)CC[C@]5(C)[C@H]4C(=O)C[C@]3(C)[C@H]1[C@@H]2C [PAMAQUESIDE]")
1.4

###

- assay_remarks: Pharmacokinetic parameter Cmax has been determined in fed Beagle dogs at a dose of 500 mg/kg
- Type: ADME, organism-based, Canis lupus familiaris
- Design: dose 500 mg/kg
- stated_conditions: dog, in vivo
measured_attribute: Cmax (ng/mL)

>>> endpoint_result("C[C@@H]1CC[C@@]2(OC1)O[C@H]1C[C@H]3[C@@H]4CC[C@H]5C[C@@H](O[C@@H]6O[C@H](CO)[C@@H](O[C@@H]7O[C@H](CO)[C@@H](O)[C@H](O)[C@H]7O)[C@H](O)[C@H]6O)CC[C@]5(C)[C@H]4C(=O)C[C@]3(C)[C@H]1[C@@H]2C [PAMAQUESIDE]")
110
